FYI, the data here is from the NIST ThermoML archive (doi:10.1021/je900722m).

# measurement-setup: 318.15 K; 101.33 kPa; Liquid
property: mass density (kg/m3)

[
  {
    "compound": "CC(C)CO",
    "experimental-result": 782.061
  },
  {
    "compound": "CC(C)(C)O",
    "experimental-result": 759.675
  },
  {
    "compound": "CCCCO",
    "experimental-result": 790.465
  },
  {
    "compound": "CCC(C)O (centres undefined)",
    "experimental-result": 785.159
  }
]

---

# measurement-setup: 323.15 K; 101.33 kPa; Liquid
property: viscosity (mPa·s)

[
  {
    "compound": "CCC(C)O (centres undefined) [butan-2-ol]",
    "units-text": "mPa·s",
    "experimental-result": 1.333
  },
  {
    "compound": "CC(C)(C)O [2-methylpropan-2-ol]",
    "units-text": "mPa·s",
    "experimental-result": 1.428
  },
  {
    "compound": "CCCCO [butan-1-ol]",
    "units-text": "mPa·s",
    "experimental-result": 1.417
  },
  {
    "compound": "CC(C)CO [2-methyl-1-propanol]",
    "units-text": "mPa·s",
    "experimental-result": 1.482
  }
]

---

# measurement-setup: 308.15 K; 101.33 kPa; Liquid
Reported mass density values for the following compounds.

[
  {
    "compound": "CCCCO",
    "units-text": "kg/m3",
    "mass density": 798.343
  },
  {
    "compound": "CCC(C)O (centres undefined)",
    "units-text": "kg/m3",
    "mass density": 794.052
  },
  {
    "compound": "CC(C)CO",
    "units-text": "kg/m3",
    "mass density": 790.123
  },
  {
    "compound": "CC(C)(C)O",
    "units-text": "kg/m3",
    "mass density": 770.365
  }
]

---

Reported mass density values for the following molecules.
# measurement-setup: 313.15 K; 101.33 kPa; Liquid
property: mass density (kg/m3)

[
  {
    "molecule": "CCC(C)O (centres undefined)",
    "property": "mass density",
    "experimental-result": 789.658
  },
  {
    "molecule": "CC(C)CO",
    "property": "mass density",
    "experimental-result": 786.12
  },
  {
    "molecule": "CCCCO",
    "property": "mass density",
    "experimental-result": 794.425
  },
  {
    "molecule": "CC(C)(C)O",
    "property": "mass density",
    "experimental-result": 765.07
  }
]

---

# measurement-setup: 343.15 K; 101.33 kPa; Liquid
Reported mass density values for the following compounds.
property: mass density (kg/m3)

[
  {
    "compound": "CCC(C)O (centres undefined)",
    "property": "mass density",
    "experimental-result": 760.962
  },
  {
    "compound": "CC(C)(C)O",
    "property": "mass density",
    "experimental-result": 731.313
  },
  {
    "compound": "CC(C)CO",
    "property": "mass density",
    "experimental-result": 760.611
  },
  {
    "compound": "CCCCO",
    "property": "mass density",
    "experimental-result": 769.845
  }
]
